Value source: paper PMC5540273

test system: TAK1; construct: gene MAP3K7; settings: concentration: 1 μM, replicates: in singlicate; n = 1;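 note: KINOMEscan kinase panel screen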
Entries annotated with measured %Inh

{"molecule": "COc1ccc(Nc2nccc(NCCNC(=O)Nc3ccccc3F)n2)cc1 [GSK1379901]", "output-unit": "%", "%Inh": 0}
{"molecule": "Nc1ncnc2[nH]c(-c3ccccc3)nc12 [AH5015]", "output-unit": "%", "%Inh": 0}
{"molecule": "COc1ccc(Nc2nccc(-c3cccc(NC(=O)c4cc5cc(F)ccc5[nH]4)c3)n2)cc1 [GSK1229782]", "output-unit": "%", "%Inh": 64}
{"molecule": "O=c1cc(N2CCOCC2)nc2n(Cc3cccc(Cl)c3Cl)ccn12 [GSK2286295]", "output-unit": "%", "%Inh": 5}
{"molecule": "COc1ccc(CNC(=O)NC2CCN(c3ccnc(Nc4cc(OC)c(OC)c(OC)c4)n3)C2)cc1 (stereo not shown) [GSK1379748]", "output-unit": "%", "%Inh": 0}
{"molecule": "Cc1cc(N2Cc3ccccc3C2)nc(Nc2ccc(S(=O)(=O)N3CCOCC3)cc2)n1.Cl [GSK1669917]", "output-unit": "%", "%Inh": 0}
{"molecule": "CS(=O)(=O)c1ccc(-c2nc3n(c2-c2ccncc2)CCC3)cc1 [SKF-105942]", "output-unit": "%", "%Inh": 0}
